# assay: Pharmacokinetic study after single oral administration to mice
# Assay type: in vivo
# measurementParameters: male, ICR, plasma; mouse, representative sample 4 h after oral 3 mg/kg; read-out: Plasma concentration of DA-7010
measure: concentration at 4 h (ng/mL)
Give just the number in ng/mL; leave the unit off.

Which concentration at 4 h is reported for this compound? C[C@@H]1COB2O[C@H](CN)c3cccc(c32)O1 [DA-7010]
334

* * *

# assay: Pharmacokinetic study after single oral administration to rats
# Assay type: in vivo
# measurementParameters: male, Sprague-Dawley, rat, plasma; rats (n = 7), single oral dose 3 mg/kg, median (range)
measure: Tmax (min)
Unit min implied. Number only.

Which Tmax value belongs to C[C@@H]1COB2O[C@H](CN)c3cccc(c32)O1 [DA-7010] ?
20
